STUDY_SYSTEM: T1, PTHR-1 (species and cells not stated for the assay) (Homo sapiens (Human), UniProt Q03431 27-593)
T1 sequence: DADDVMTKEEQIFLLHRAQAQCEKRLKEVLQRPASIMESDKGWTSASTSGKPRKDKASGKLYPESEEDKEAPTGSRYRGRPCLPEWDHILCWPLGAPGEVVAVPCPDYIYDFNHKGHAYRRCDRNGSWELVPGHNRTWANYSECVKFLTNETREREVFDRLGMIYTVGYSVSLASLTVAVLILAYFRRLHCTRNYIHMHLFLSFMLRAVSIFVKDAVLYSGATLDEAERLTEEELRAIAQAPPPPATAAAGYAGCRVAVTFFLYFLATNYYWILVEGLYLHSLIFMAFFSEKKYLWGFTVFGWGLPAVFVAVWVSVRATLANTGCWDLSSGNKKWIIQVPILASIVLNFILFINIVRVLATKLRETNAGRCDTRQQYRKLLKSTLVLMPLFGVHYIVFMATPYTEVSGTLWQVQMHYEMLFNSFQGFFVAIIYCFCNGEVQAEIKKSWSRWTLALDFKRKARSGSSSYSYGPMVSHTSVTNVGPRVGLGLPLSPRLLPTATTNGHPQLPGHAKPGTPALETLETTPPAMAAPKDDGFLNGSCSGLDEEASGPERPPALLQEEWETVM
ASSAY_PROCEDURE: cell-based or functional assay
Non-standard residues stand in square brackets, D forms with d. Primed or numbered codes have the meaning given here. No end group written: not given here. APC = aminopyrrolidine carboxylic acid (2-aminopyrrolidine-4-carboxylic acid); ACPC″ = 2-aminocyclopentane carboxylic acid (X); ACPC = 2-aminocyclopentane carboxylic acid; β3hW = N[C@H](CC(=O)O)Cc1c[nH]c2ccccc12; β3hE = N[C@@H](CCC(=O)O)CC(=O)O; β3hF = N[C@H](CC(=O)O)Cc1ccccc1; β3hK = NCCCC[C@H](N)CC(=O)O; β3hM = CSCC[C@H](N)CC(=O)O; β3hD = NC(CC(=O)O)CC(=O)O
Recorded measurements of cAMP EC50, one per entry
Please give the number followed by its unit.

Past entries and their recorded results:
BINDER	cAMP EC50
SVSEIQLMHNLGK[ACPC″]LNS[ACPC″]ERV[β3hE]WLR[APC]KLQ[β3hD]VHN[ACPC″]-NH2 (also: β3 residues (bold, underlined) not marked in the text) [cycD6]	100 pM
SVSEIQLMHNLGK[β3hW]LNS[β3hM]ERV[β3hE]WLR[β3hK]KLQ[β3hD]VHN[β3hF]-NH2 (also called α/β-peptide D6) [D6]	170 pM
SVSEIQLMHNLGK[ACPC]LNS[ACPC]ERV[APC]WLR[APC]KLQ[ACPC]VHN[ACPC]-NH2 (not fully specified; printed as SVSEIQLMHNLGKXLNSXERVZWLRZKLQXVHNX-NH2) [FcycD6]	260 pM
[ACPC]VSE[ACPC]Q[ACPC]MHNLGKHLNSMERVEWLRKKLQDVHNF-NH2 [ACPC(1,5,7)]	2990 pM

**Query** Any idea what cAMP EC50 was measured for [ACPC]VSEIQ[ACPC]MHNLGK[ACPC]LNS[ACPC]ERVEWLR[APC]KLQDVHN[ACPC]-NH2 (not fully specified; printed as XVSEIQXMHNLGKXLNSXERVEWLRZKLQDVHNX-NH2; also: further β3 residues, positions not shown (marking lost)) [CycD6_ACPC(1,7)] ?
**Result** 590 pM

**Query** And the next one, [ACPC]VSEIQ[ACPC]MHNLGKHLNSMERVEWLRKKLQDVHNF-NH2 [ACPC(1,7)] ?
**Result** 140 pM

**Query** Another binder to check: [ACPC]VSEIQ[ACPC]MHNLGKWLNSMERVEWLRKKLQDVHNF-NH2 (not fully specified; printed as XVSEIQXMHNLGKWLNSMERVEWLRKKLQDVHNF-NH2; also: D6 β3 residues, positions not shown (marking lost)) [D6_ACPC(1,7)]
**Result** 1840 pM

**Query** Then [ACPC″]VSE[ACPC″]Q[ACPC″]MHNLGK[ACPC″]LNS[ACPC″]ERV[APC]WLR[APC]KLQ[ACPC″]VHN[ACPC″]-NH2 [FcycD6_ACPC(1,5,7)] ?
**Result** 19100 pM
